All figures here come from patent US20170022281A1.

Target: T1, rat PRLR ECD-Fc fusion protein (rat, UniProt P05710 20-229)
T1 construct: extracellular domain; not shown: Fc region (captured by goat anti-human Fc)
T1 sequence (looked up): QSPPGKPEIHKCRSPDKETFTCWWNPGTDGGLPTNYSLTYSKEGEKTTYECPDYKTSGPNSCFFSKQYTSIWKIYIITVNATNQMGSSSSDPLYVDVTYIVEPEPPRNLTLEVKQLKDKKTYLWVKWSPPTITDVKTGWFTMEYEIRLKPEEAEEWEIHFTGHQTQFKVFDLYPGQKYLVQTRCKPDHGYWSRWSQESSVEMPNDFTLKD
Test: ELISA on ECD
Protocol: Plates were blocked for 1 hour with Superblock (Pierce) and washed (3×) with wash buffer (lx PBS (pH 7.4), 0.05% Tween 20). ECD proteins were bound to the appropriate antibody (1 hour) in binding buffer (wash buffer plus 10% Superblock), washed (3×, wash buffer), and then incubated with serial dilutions of antibodies (1 hour) in binding buffer. […] Curves were fit with GraphPad 5 (Prizm) and EC50's were determined with curve fitting function of GraphPad 5.
quantity-measured: EC50 (nM)
Answer with a number only, understood to be in nM.

Example entries begin here.
Ab10 (antibody, V domains shown, murine monoclonal, isotype G2a; also called murine Ab10) VH: EVQLHQSGPELVKPGASVKISCKASGYTFTDYNMHWMKQSHGKSLEWIGYFYPYNGGTGYNQEFKNKATLTVDISSSTAYMELRRLTSEDSAVYYCARGGWGIYYAMDYWGQGTSVTVSS VL: DIQMTQSPASLSASVGETVTITCRASENIYSYLTWYQQKQGKSPQLLVYNAKTLAEGVPSRFSGSGSGTQFSLKINSLQPEDFGSYHCQHHSVTPLTFGAGTKLELK = 0.234
Ab11 (antibody, V domains shown, murine monoclonal, isotype G1; also called murine Ab11) VH: EVKLVESGGGLVQPGGSLKLSCAASGFTFSDYYMFWVRQTPEKSLEWVAYISNGGGSTYYPDTVKGRFTISRDNAKNTLYLQMSRLKSEDTAMYYCSRQLFYYGSRGAMGYWGQGTSVTVSS VL: DVLMTQTPLSLPVSLGDQASISCRSSQSIVHSNGNTYLEWYLQKPGQSPKLLIYKVSNRFSGVPDRFSGSGSGTDFTLKISRVEAEDLGVYYCFQGSHVPFTFGSGTKLEIK = 0.087

input: Data request, read-out EC50, for Ab7 (antibody, V domains shown, murine monoclonal, isotype G1; also called murine Ab7) VH: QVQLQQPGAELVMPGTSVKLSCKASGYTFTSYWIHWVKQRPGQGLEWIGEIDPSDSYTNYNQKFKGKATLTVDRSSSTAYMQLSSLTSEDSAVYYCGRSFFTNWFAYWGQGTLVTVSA VL: DVVMTQTPLSLPVSLGDQASISCRSSQSLVHSNGNTYLHWYLQKPGQSPKLLIYKVSNRFSGVPDRFSGSGSGTDFTLKINRVEAEDLGVYFCSQSTHVPFTFGSGTKLEIK
output: 0.135
